# target-entity: yeast HSP90 (Saccharomyces cerevisiae)
# protocol-notes: Hsp90 ATPase assay (malachite green)
# Type: biochemical
# Procedure: For present invention, the ATPase activity of yeast HSP90 was measured using malachite green assay. Formula I compounds for primary antitumoral activity were treated in human colorectal cancer cells (HCT116) showing increased expression levels of HSP90 client protein and cotoxicity IC50 values was measured as a result.
We begin with a simple list: items and their reported IC50.

Consider the following illustrative entries.
Qu. Give the value of IC50 reported for the following: `CCNC(=O)c1noc(-c2cc(C(C)C)c(O)cc2O)c1-c1cc(-c2ccccc2)no1`
Ans. 500 to 1000 nM

Qu. Give the value of IC50 reported for the following: `CCNC(=O)c1noc(-c2cc(C(C)C)c(O)cc2O)c1-c1cc(CN)no1`
Ans. 500 to 1000 nM

Qu. Give the value of IC50 reported for the following: `CCNC(=O)c1noc(-c2cc(C(C)C)c(O)cc2O)c1-c1cc(COCC(=O)O)no1`
Ans. > 1000 nM

Qu. Give the value of IC50 reported for the following: `CCNC(=O)c1noc(-c2cc(C(C)C)c(O)cc2O)c1-c1ccn(C(C)C)n1`
Ans. 500 to 1000 nM

***
Qu. Give the value of IC50 reported for the following: `CCNC(=O)c1noc(-c2cc(C(C)C)c(O)cc2O)c1-c1nnn[nH]1`
Ans. 500 to 1000 nM

* * *

# target-entity: yeast HSP90 (Saccharomyces cerevisiae, UniProt P02829)
# Sequence (P02829 whole entry): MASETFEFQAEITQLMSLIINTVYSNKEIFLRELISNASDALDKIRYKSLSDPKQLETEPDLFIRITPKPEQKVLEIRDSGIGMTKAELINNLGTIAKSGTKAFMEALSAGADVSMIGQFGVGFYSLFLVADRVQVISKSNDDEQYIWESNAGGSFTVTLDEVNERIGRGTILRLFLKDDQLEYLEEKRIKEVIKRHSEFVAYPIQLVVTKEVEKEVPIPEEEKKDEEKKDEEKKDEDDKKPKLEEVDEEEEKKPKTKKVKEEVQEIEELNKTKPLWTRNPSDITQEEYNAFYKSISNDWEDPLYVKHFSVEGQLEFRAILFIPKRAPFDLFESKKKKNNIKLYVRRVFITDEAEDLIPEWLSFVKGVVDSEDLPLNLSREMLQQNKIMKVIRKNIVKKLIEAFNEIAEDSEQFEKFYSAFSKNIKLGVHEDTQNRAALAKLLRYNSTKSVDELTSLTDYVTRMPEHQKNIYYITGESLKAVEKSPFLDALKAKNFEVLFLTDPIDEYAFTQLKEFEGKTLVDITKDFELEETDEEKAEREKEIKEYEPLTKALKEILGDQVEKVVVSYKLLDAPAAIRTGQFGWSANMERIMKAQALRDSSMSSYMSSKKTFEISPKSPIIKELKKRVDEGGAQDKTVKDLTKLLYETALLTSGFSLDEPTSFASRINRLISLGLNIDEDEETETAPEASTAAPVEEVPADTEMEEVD
# protocol-notes: Hsp90 ATPase assay (malachite green)
# Format: biochemical
We begin with a simple list: items and their reported IC50.

Qu. Give the value of IC50 reported for the following: CCNC(=O)c1noc(-c2cc(C(C)C)c(O)cc2O)c1-c1noc(N2CCOCC2)n1 [Compound I-73]
Ans. 500 to 1000 nM

Qu. Give the value of IC50 reported for the following: CCNC(=O)c1noc(-c2cc(C(C)C)c(O)cc2O)c1-c1cc(C(=O)OCC)no1 [Compound I-15]
Ans. < 500 nM

Qu. Give the value of IC50 reported for the following: CCNC(=O)c1noc(-c2cc(C(C)C)c(O)cc2O)c1-c1cc(CNC(C)=O)no1 [Compound I-31]
Ans. 500 to 1000 nM

Qu. Give the value of IC50 reported for the following: CCNC(=O)c1noc(-c2cc(C(C)C)c(O)cc2O)c1-c1cc(CN(CC)CC)no1 [Compound I-20]
Ans. < 500 nM

* * *

# target-entity: yeast HSP90 (Saccharomyces cerevisiae, UniProt P02829)
# protocol-notes: Hsp90 ATPase assay (malachite green)
# Format: biochemical
# Experimental: For present invention, the ATPase activity of yeast HSP90 was measured using malachite green assay. Formula I compounds for primary antitumoral activity were treated in human colorectal cancer cells (HCT116) showing increased expression levels of HSP90 client protein and cotoxicity IC50 values was measured as a result.
property-measured: IC50

Consider the following illustrative entries.
Qu. State recorded IC50 with yeast HSP90 (Saccharomyces cerevisiae, UniProt P02829), entry `CCNC(=O)c1noc(-c2cc(C(C)C)c(O)cc2O)c1-c1noc(C2CCCC2)n1` , no comment.
Ans. < 500 nM

Qu. State recorded IC50 with yeast HSP90 (Saccharomyces cerevisiae, UniProt P02829), entry `CCNC(=O)c1noc(-c2cc(C(C)C)c(O)cc2O)c1-c1noc(C)n1` , no comment.
Ans. < 500 nM

Qu. State recorded IC50 with yeast HSP90 (Saccharomyces cerevisiae, UniProt P02829), entry `CCNC(=O)c1cc(-c2c(C(=O)NCC)noc2-c2cc(C(C)C)c(O)cc2O)on1` , no comment.
Ans. < 500 nM

***
Qu. State recorded IC50 with yeast HSP90 (Saccharomyces cerevisiae, UniProt P02829), entry `CCNC(=O)c1noc(-c2cc(C(C)C)c(O)cc2O)c1-c1cc(C(=O)N2CCOCC2)no1` , no comment.
Ans. 500 to 1000 nM

Qu. State recorded IC50 with yeast HSP90 (Saccharomyces cerevisiae, UniProt P02829), entry `CCNC(=O)c1noc(-c2cc(C(C)C)c(O)cc2O)c1-c1nnnn1C` , no comment.
Ans. < 500 nM

Qu. State recorded IC50 with yeast HSP90 (Saccharomyces cerevisiae, UniProt P02829), entry `CCNC(=O)c1noc(-c2cc(C(C)C)c(O)cc2O)c1-c1cc(CNC)no1` , no comment.
Ans. < 500 nM

Qu. State recorded IC50 with yeast HSP90 (Saccharomyces cerevisiae, UniProt P02829), entry `CCNC(=O)c1noc(-c2cc(C(C)C)c(O)cc2O)c1-c1cc(CNC(C)C)no1` , no comment.
Ans. 500 to 1000 nM

Qu. State recorded IC50 with yeast HSP90 (Saccharomyces cerevisiae, UniProt P02829), entry `CCNC(=O)c1noc(-c2cc(Cl)c(O)cc2O)c1-c1cc(CO)no1` , no comment.
Ans. 500 to 1000 nM

Qu. State recorded IC50 with yeast HSP90 (Saccharomyces cerevisiae, UniProt P02829), entry `CCNC(=O)c1noc(-c2cc(C(C)C)c(O)cc2O)c1-c1cnn(C(C)C)c1` , no comment.
Ans. 500 to 1000 nM

* * *

We begin with a simple list: items and their reported IC50.
# System: human colorectal cancer cells (HCT116)
# protocol-notes: Growth inhibition assay (cytotoxicity) in HCT116
# Assay type: cell-based
# run-parameters: HCT-116

Qu. State recorded IC50 with human colorectal cancer cells (HCT116), entry `CCNC(=O)c1noc(-c2cc(C(C)C)c(O)cc2O)c1-c1cc(C#N)no1` , no comment.
Ans. < 500 nM

Qu. State recorded IC50 with human colorectal cancer cells (HCT116), entry `CCNC(=O)c1noc(-c2cc(C(C)C)c(O)cc2O)c1-c1noc(CO)n1` , no comment.
Ans. < 500 nM

Qu. State recorded IC50 with human colorectal cancer cells (HCT116), entry `CCNC(=O)c1noc(-c2cc(C(C)C)c(O)cc2O)c1-c1noc(COC)n1` , no comment.
Ans. < 500 nM

Qu. State recorded IC50 with human colorectal cancer cells (HCT116), entry `CCNC(=O)c1cc(-c2c(C(=O)NCC)noc2-c2cc(C(C)C)c(O)cc2O)on1` , no comment.
Ans. < 500 nM

Qu. State recorded IC50 with human colorectal cancer cells (HCT116), entry `CCNC(=O)c1noc(-c2cc(C(C)C)c(O)cc2O)c1-c1noc(C(Cl)(Cl)Cl)n1` , no comment.
Ans. 500 to 1000 nM

Qu. State recorded IC50 with human colorectal cancer cells (HCT116), entry `CCNC(=O)c1noc(-c2cc(C(C)C)c(O)cc2O)c1-c1ncon1` , no comment.
Ans. < 500 nM

* * *

# target-entity: yeast HSP90 (Saccharomyces cerevisiae, UniProt P02829)
# protocol-notes: Hsp90 ATPase assay (malachite green)
# Assay type: biochemical
# Experimental: For present invention, the ATPase activity of yeast HSP90 was measured using malachite green assay. Formula I compounds for primary antitumoral activity were treated in human colorectal cancer cells (HCT116) showing increased expression levels of HSP90 client protein and cotoxicity IC50 values was measured as a result.
We begin with a simple list: items and their reported IC50.

Consider the following illustrative entries.
Qu. Give the value of IC50 reported for the following: `CCNC(=O)c1noc(-c2cc(C(C)C)c(O)cc2O)c1-c1noc(CN2CCCCC2)n1`
Ans. < 500 nM

Qu. Give the value of IC50 reported for the following: `CCNC(=O)c1noc(-c2cc(C(C)C)c(O)cc2O)c1-c1noc(-c2ccc(OCC)cc2)n1`
Ans. 500 to 1000 nM

Qu. Give the value of IC50 reported for the following: `CCNC(=O)c1noc(-c2cc(C(C)C)c(O)cc2O)c1-c1noc(-c2ccco2)n1`
Ans. < 500 nM

Qu. Give the value of IC50 reported for the following: `CCNC(=O)c1noc(-c2cc(C(C)C)c(O)cc2O)c1-c1cc(CN2CCOCC2)no1`
Ans. 500 to 1000 nM

Qu. Give the value of IC50 reported for the following: `CCNC(=O)c1noc(-c2cc(C(C)C)c(O)cc2O)c1-c1noc(SC)n1`
Ans. < 500 nM

***
Qu. Give the value of IC50 reported for the following: `C=CCO/N=C/c1cc(-c2c(C(=O)NCC)noc2-c2cc(C(C)C)c(O)cc2O)on1`
Ans. 500 to 1000 nM

Qu. Give the value of IC50 reported for the following: `CCNC(=O)c1noc(-c2cc(C(C)C)c(O)cc2O)c1-c1noc(C2CCCCC2)n1`
Ans. 500 to 1000 nM

Qu. Give the value of IC50 reported for the following: `CCNC(=O)c1noc(-c2cc(C(C)C)c(O)cc2O)c1-c1cc(C(N)=O)no1`
Ans. 500 to 1000 nM
